Source of measurements: the supplement of paper PMC10567573

B1: KCTD10 (parent)
chain: SSKEEQKLIATSNKPAVKLLYNRS

- Variants of: B1
- assay_overview: protein stability index of a GFP-peptide fusion (GPS, HEK-293T) (PSI 1-6); higher = more stable;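 further: lentivirally expressed fusions sorted by FACS into six bins by GFP to DsRed ratio, PSI derived from sequencing read proportions per bin multiplied by bin number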
- cond: c terminus: a fixed tail appended
recorded_metric: protein stability index

{"biosequence": "SSKEEQKLIAQSNKPAVKLLYNRS [T11Q]", "reported_result": 4.15}
{"biosequence": "SSKEEQKLIATSNKPAVKLAYNRS [L20A]", "reported_result": 4.89}
{"biosequence": "SSKEEQKLIATSNKPAVYLLYNRS [K18Y]", "reported_result": 3.03}
{"biosequence": "SSKEEQKLIATSNHPAVKLLYNRS [K14H]", "reported_result": 3.59}
{"biosequence": "SGKEEQKLIATSNKPAVKLLYNRS [S2G]", "reported_result": 4.25}
{"biosequence": "SSKEEQKLKATSNKPAVKLLYNRS [I9K]", "reported_result": 4.39}
{"biosequence": "SSKEEQKLIATSNKPAMKLLYNRS [V17M]", "reported_result": 3.97}
{"biosequence": "SSKEEQHLIATSNKPAVKLLYNRS [K7H]", "reported_result": 3.85}
{"biosequence": "SSKEEQKLIATSNKPAVKLLYLRS [N22L]", "reported_result": 3.14}
{"biosequence": "SSKEPQKLIATSNKPAVKLLYNRS [E5P]", "reported_result": 3.56}
{"biosequence": "SSKEECKLIATSNKPAVKLLYNRS [Q6C]", "reported_result": 4.15}
{"biosequence": "SSKEEQKLIATSNKPAVKLLYNFS [R23F]", "reported_result": 3.29}
{"biosequence": "SVKEEQKLIATSNKPAVKLLYNRS [S2V]", "reported_result": 3.5}
{"biosequence": "SSKEEQKLIATSNKPAVKWLYNRS [L19W]", "reported_result": 3.35}
{"biosequence": "SSKEEQKLIATSKKPAVKLLYNRS [N13K]", "reported_result": 3.96}
{"biosequence": "SSKEEQKLIYTSNKPAVKLLYNRS [A10Y]", "reported_result": 3.65}
{"biosequence": "SSKEEQKLIATSNKPSVKLLYNRS [A16S]", "reported_result": 4.2}
{"biosequence": "SSKEEQKLIATSNKCAVKLLYNRS [P15C]", "reported_result": 2.96}
{"biosequence": "SSKEEQKLIATSNKPAVKALYNRS [L19A]", "reported_result": 4.59}
{"biosequence": "SSKEEQKTIATSNKPAVKLLYNRS [L8T]", "reported_result": 4.47}
{"biosequence": "SSKECQKLIATSNKPAVKLLYNRS [E5C]", "reported_result": 3.34}
{"biosequence": "SSKEEQKNIATSNKPAVKLLYNRS [L8N]", "reported_result": 4.31}
{"biosequence": "SSKEEQKLIAISNKPAVKLLYNRS [T11I]", "reported_result": 3.73}
{"biosequence": "SSKEEQKLIATSNKPAQKLLYNRS [V17Q]", "reported_result": 4.52}
{"biosequence": "SSKEEQKLIATSNAPAVKLLYNRS [K14A]", "reported_result": 3.76}
{"biosequence": "SSKEEQKLIRTSNKPAVKLLYNRS [A10R]", "reported_result": 3.88}
{"biosequence": "SSKEEQKLIATSNKPAVKLRYNRS [L20R]", "reported_result": 4.46}
{"biosequence": "SSKEENKLIATSNKPAVKLLYNRS [Q6N]", "reported_result": 3.96}
{"biosequence": "SSKEEQKLVATSNKPAVKLLYNRS [I9V]", "reported_result": 4.34}
{"biosequence": "SSKEEQTLIATSNKPAVKLLYNRS [K7T]", "reported_result": 3.87}
{"biosequence": "SSKEEQKLIATSNKPAVKLLFNRS [Y21F]", "reported_result": 3.75}
{"biosequence": "SSKEEWKLIATSNKPAVKLLYNRS [Q6W]", "reported_result": 2.79}
{"biosequence": "SSKEEQKPIATSNKPAVKLLYNRS [L8P]", "reported_result": 4.88}
{"biosequence": "SSKEEQKLIAFSNKPAVKLLYNRS [T11F]", "reported_result": 3.63}
{"biosequence": "SSKEEQKLIATSNKPAVKLLYSRS [N22S]", "reported_result": 3.41}
